- subject of test: Beta-2 adrenergic receptor (Homo sapiens)
- method: Adrenergic beta2 receptor (ADRB2) small molecule agonists, cell-based qHTS assay (AID 1963593);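 also: CHO cells stably overexpressing human ADRB2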
- test settings: CHO-ADRB2 cells, cAMP HTRF, 30 min; series mostly up to 92.4 µM
Results filed as inconclusive are left out. Activity calls are given as the source filed them. Calls follow the shape of the full dose curve.
measured attribute: activation

Examples with answers:
INSERT INTO measurements (molecule, measured) VALUES
  ('CC[C@@H]([C@H](C)O)n1ncn(-c2ccc(N3CCN(c4ccc(OC[C@@H]5CO[C@@](Cn6cncn6)(c6ccc(F)cc6F)C5)cc4)CC3)cc2)c1=O', 'inactive'),
  ('CN(C)c1ccc(SC#N)cc1', 'inactive'),
  ('C[C@]12CCC(=O)C=C1[C@@H]1C[C@@H]1[C@H]1[C@@H]3[C@@H]4C[C@@H]4[C@@]4(CCC(=O)O4)[C@@]3(C)CC[C@@H]12', 'inactive'),
  ('C=CC(=O)OCCC#N', 'inactive'),
  ('CC1(CO)CN(c2ccccc2)NC1=O (stereo not given)', 'inactive'),
  ('O=C1Cc2ccccc2N1c1c(Cl)cccc1Cl', 'inactive');

# "CC1(C)O[C@@H]2C[C@H]3[C@@H]4C[C@H](F)C5=CC(=O)C=C[C@]5(C)[C@H]4[C@@H](O)C[C@]3(C)[C@]2(C(=O)CO)O1" with Beta-2 adrenergic receptor (Homo sapiens): activation is inactive

# "C=C(C)C(=O)OCc1ccccc1" with Beta-2 adrenergic receptor (Homo sapiens): activation is inactive

# CCN(Cc1ccncc1)C(=O)C(CO)c1ccccc1 (stereo not given) with Beta-2 adrenergic receptor (Homo sapiens): activation is inactive

# O=C1NC2CCCCN2C12CCN(CCCN1c3ccccc3CCc3ccc(Cl)cc31)CC2 (stereo not given) with Beta-2 adrenergic receptor (Homo sapiens): activation is inactive
